Test system: 134 cancer cell lines
ASSAY_NOTES: Cell viability assay (ATPlite, 72 hours), IC50 on cancer cell line panel
EXPERIMENTAL_PARAMETERS: Homo sapiens, MOLM-13, read-out: IC50 in cell proliferation assay, MOLM-13 cell line (FLT3 ITD)
ENDPOINT_LABEL: IC50 (nM)

- CC(C)(C)c1nc(-c2cccc(NS(=O)(=O)c3c(F)cccc3F)c2F)c(-c2ccnc(N)n2)s1: 5700
- Cn1cnc2c(F)c(Nc3ccc(Br)cc3F)c(C(=O)NOCCO)cc21: 1030
- COC(=O)N[C@@H](C)CNc1nccc(-c2cn(C(C)C)nc2-c2cc(Cl)cc(NS(C)(=O)=O)c2F)n1: 1070
- COc1ccc(CN2C3CC2CN(c2ccc(-c4cc(OCC(C)(C)O)cn5ncc(C#N)c45)cn2)C3)cn1: 123

----------
TARGET_ENTITY: panel of 255 wild-type kinases (Homo sapiens, UniProt Q9Y3S1)
Sequence (Q9Y3S1 whole entry): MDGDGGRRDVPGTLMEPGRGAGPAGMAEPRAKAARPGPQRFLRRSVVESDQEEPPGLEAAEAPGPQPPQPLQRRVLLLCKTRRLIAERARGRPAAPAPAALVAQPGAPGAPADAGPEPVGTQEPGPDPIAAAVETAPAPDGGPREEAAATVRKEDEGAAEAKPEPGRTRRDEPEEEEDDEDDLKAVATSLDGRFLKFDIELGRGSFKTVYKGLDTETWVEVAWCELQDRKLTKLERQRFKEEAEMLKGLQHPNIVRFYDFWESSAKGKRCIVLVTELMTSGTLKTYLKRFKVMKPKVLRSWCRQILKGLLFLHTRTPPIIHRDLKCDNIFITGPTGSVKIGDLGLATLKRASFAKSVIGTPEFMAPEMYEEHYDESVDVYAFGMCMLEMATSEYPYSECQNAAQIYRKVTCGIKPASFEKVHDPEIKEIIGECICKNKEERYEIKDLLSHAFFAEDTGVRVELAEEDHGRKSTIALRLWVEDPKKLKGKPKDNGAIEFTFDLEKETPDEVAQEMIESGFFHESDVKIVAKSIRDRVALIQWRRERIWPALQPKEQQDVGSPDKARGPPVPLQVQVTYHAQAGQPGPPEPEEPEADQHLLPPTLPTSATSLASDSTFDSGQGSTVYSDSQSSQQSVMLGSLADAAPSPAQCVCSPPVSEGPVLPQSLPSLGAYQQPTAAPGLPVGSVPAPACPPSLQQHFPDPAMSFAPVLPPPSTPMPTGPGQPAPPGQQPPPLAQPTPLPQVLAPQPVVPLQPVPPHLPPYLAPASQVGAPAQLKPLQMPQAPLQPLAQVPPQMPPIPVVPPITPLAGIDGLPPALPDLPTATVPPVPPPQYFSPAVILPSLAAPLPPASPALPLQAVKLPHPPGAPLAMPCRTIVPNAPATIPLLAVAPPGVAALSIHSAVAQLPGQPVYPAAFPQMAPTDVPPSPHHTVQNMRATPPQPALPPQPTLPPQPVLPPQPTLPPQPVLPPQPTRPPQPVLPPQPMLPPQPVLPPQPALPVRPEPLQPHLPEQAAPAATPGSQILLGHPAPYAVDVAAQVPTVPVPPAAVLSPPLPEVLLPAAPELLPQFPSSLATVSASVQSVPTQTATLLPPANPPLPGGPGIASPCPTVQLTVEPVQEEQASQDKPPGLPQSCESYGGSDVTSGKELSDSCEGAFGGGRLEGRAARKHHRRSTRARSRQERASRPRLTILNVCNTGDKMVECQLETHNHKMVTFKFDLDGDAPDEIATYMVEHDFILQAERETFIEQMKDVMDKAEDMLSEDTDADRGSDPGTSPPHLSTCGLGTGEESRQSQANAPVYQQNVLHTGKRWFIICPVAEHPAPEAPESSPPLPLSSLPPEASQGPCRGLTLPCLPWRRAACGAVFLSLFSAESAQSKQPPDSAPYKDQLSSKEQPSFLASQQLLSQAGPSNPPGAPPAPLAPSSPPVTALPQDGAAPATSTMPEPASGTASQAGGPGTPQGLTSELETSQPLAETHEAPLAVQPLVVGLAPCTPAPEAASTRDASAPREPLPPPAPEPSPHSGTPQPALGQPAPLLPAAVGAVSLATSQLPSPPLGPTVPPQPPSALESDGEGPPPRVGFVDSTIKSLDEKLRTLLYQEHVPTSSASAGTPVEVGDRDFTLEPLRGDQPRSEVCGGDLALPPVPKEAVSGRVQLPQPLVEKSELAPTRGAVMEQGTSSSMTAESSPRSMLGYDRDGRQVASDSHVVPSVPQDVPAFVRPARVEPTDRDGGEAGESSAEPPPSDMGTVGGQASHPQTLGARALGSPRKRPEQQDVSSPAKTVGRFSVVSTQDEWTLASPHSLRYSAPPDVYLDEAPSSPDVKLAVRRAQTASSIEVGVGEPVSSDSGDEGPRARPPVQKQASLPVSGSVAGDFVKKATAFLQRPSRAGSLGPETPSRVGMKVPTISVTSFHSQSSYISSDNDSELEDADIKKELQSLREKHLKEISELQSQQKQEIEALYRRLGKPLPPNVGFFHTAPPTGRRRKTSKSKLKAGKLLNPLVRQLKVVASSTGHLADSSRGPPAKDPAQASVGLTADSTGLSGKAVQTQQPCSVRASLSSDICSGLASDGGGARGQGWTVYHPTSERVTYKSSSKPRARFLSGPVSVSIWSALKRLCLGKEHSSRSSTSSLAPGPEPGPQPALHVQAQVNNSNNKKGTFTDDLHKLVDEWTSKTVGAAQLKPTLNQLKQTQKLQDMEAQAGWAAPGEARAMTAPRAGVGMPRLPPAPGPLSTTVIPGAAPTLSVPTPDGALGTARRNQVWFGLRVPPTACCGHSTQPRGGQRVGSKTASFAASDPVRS
ASSAY_NOTES: Kinase panel profiling at 1 µmol/L (MSA or IMAP), percentage inhibition
Type: biochemical
EXPERIMENTAL_PARAMETERS: kinase WNK2; 1 µmol/L single concentration; read-out: %-inhibition at 1 µmol/L, WNK2
In this section, each of the compounds is paired with its reported inhibition at 1 µM.
ENDPOINT_LABEL: inhibition at 1 µM (%)

* O=C(Nc1cnn2ccc(N3CCC[C@@H]3c3cc(F)ccc3F)nc12)N1CC[C@H](O)C1 | -2
* C[C@H](Nc1ncnc2nc[nH]c12)c1cc2cccc(Cl)c2c(=O)n1-c1ccccc1 | -1.82
* CO[C@]1(C(=O)N[C@@H](C)c2ccc(-n3cc(F)cn3)nc2)CC[C@H](c2nc(C)cc(Nc3cc(C)[nH]n3)n2)CC1 | -1

----------
In this section, each of the molecules is paired with its reported inhibition at 1 µM.
TARGET_ENTITY: panel of 255 wild-type kinases (Homo sapiens, UniProt O96013)
Sequence (O96013 whole entry): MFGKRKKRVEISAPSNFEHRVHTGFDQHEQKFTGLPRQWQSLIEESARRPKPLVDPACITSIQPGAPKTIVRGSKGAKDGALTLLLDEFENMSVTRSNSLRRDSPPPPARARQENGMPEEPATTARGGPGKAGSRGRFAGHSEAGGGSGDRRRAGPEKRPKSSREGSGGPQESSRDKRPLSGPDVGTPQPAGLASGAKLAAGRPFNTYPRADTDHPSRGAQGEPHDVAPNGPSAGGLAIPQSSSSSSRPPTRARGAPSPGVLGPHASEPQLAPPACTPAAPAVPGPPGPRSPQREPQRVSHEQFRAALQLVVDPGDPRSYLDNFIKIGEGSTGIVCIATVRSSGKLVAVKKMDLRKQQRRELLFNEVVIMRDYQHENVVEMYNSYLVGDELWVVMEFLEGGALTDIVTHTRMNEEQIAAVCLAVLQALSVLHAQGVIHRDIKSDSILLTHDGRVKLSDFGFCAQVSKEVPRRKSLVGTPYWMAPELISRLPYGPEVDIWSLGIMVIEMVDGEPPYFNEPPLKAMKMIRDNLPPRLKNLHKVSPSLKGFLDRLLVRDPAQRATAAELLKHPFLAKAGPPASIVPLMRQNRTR
ASSAY_NOTES: Kinase panel profiling at 1 µmol/L (MSA or IMAP), percentage inhibition
Format: biochemical
EXPERIMENTAL_PARAMETERS: PAK4; 1 µmol/L single concentration; read-out: %-inhibition, PAK4
ENDPOINT_LABEL: inhibition at 1 µM (%)

• Cn1cc(-c2cc3c(N4CCN(c5ncc([C@@](C)(N)c6ccc(F)cc6)cn5)CC4)ncnn3c2)cn1 [avapritinib] = 8
• CO[C@]1(C(=O)N[C@@H](C)c2ccc(-n3cc(F)cn3)nc2)CC[C@H](c2nc(C)cc(Nc3cc(C)[nH]n3)n2)CC1 [pralsetinib] = 66
• CCc1nc(C(N)=O)c(Nc2ccc(N3CCC(N4CCN(C)CC4)CC3)c(OC)c2)nc1NC1CCOCC1 [gilteritinib] = 74
• FC(F)(F)c1ccc(CNc2ccc(Cc3c[nH]c4ncc(Cl)cc34)cn2)cn1 [pexidartinib] = 11
• C=CC(=O)N1CCC([C@@H]2CCNc3c(C(N)=O)c(-c4ccc(Oc5ccccc5)cc4)nn32)CC1 [zanubrutinib] = -11
• Cn1cnc2c(F)c(Nc3ccc(Br)cc3F)c(C(=O)NOCCO)cc21 [binimetinib] = -2.71
• C[C@H](Nc1ncnc2nc[nH]c12)c1cc2cccc(Cl)c2c(=O)n1-c1ccccc1 [duvelisib] = 0.277
• COc1ccc(CN2C3CC2CN(c2ccc(-c4cc(OCC(C)(C)O)cn5ncc(C#N)c45)cn2)C3)cn1 [selpercatinib] = 8
• Cc1cc(Nc2ncnc3ccc(NC4=NC(C)(C)CO4)cc23)ccc1Oc1ccn2ncnc2c1 [tucatinib] = 5
• CCN1C(=O)N(c2c(F)c(OC)cc(OC)c2F)Cc2cnc3[nH]c(CN4CCOCC4)cc3c21 [pemigatinib] = -1.88

Values compiled from paper PMC9516332.
